The measurements presented in this section are drawn from ChEMBL document CHEMBL3044632.

tested on: Phytophthora infestans; test: Fungicide activity against Phytophthora infestans assessed as growth inhibition at 50 ug/mL at 24 to 26 degC measured after 2 days; type: functional; details: 48 h, read-out: GI

{"Molecule": "Cc1nnsc1C1=NNC2SC(C(C)(C)C)=NN12 (configuration not stated)", "inhibition of growth at 50 µg/mL (%)": 14.7}
{"Molecule": "Cc1nnsc1C1=NNC2SC(c3ccco3)=NN12 (configuration not stated)", "inhibition of growth at 50 µg/mL (%)": 14.7}
{"Molecule": "Cc1nnsc1C1=NNC2SC(c3ccccc3F)=NN12 (configuration not stated)", "inhibition of growth at 50 µg/mL (%)": 20}
{"Molecule": "Cc1nnsc1C1=NNC2SC(CCl)=NN12 (configuration not stated)", "inhibition of growth at 50 µg/mL (%)": 11.4}
{"Molecule": "Cc1nnsc1C1=NNC2SC(c3ccc(F)cc3)=NN12 (configuration not stated)", "inhibition of growth at 50 µg/mL (%)": 15.6}
{"Molecule": "Cc1nnsc1C1=NNC2SC(c3ccncc3)=NN12 (configuration not stated)", "inhibition of growth at 50 µg/mL (%)": 0}
{"Molecule": "COc1ccc(C2=NN3C(c4snnc4C)=NNC3S2)cc1 (configuration not stated)", "inhibition of growth at 50 µg/mL (%)": 4.8}
